Target: human glucagon receptor (Homo sapiens, UniProt P47871)
Construct: made in house; host or cells: FreeStyle CHO cells, transient transfection with pMSRαneo/hGCGR; membrane fraction (35,000 rpm pellet)
Sequence (P47871 26-477): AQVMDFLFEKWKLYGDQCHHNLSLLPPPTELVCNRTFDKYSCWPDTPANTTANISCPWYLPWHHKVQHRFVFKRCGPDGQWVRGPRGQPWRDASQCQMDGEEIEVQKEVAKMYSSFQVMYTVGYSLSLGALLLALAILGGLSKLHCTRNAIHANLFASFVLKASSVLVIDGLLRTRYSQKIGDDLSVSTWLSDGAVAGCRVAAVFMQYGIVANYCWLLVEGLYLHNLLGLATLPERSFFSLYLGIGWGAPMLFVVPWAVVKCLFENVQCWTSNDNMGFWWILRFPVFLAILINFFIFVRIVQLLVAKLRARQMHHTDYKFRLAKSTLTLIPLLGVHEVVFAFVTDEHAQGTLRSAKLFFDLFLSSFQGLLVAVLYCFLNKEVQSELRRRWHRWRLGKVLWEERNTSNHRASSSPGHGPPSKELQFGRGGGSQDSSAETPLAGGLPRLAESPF
Test: Glucagon binding inhibitory activity ([125I]-glucagon binding to glucagon receptor membrane protein)
Settings: test compound 10 μM; 0.4% DMSO = 0%, non-labeled glucagon 1 μM = 100%; read-out: inhibitory rate (%) at 10 μM
Measured Quantity: inhibition at 10 µM (%)
Supply the numeric figure in %, leaving out any unit text.

Solved entries:
- Compound: "CC(C)(C)c1nn(-c2ccc(C(F)(F)F)cn2)cc1C(Nc1ccc(C(=O)NCCC(=O)O)cc1)C1CCCCC1 (stereo not shown) [Example 13]"
  Measure Unit: "%"
  inhibition at 10 µM: 71
- Compound: "COCc1nn(-c2cccc(C(F)(F)F)n2)cc1C(Nc1ccc(C(=O)NCCC(=O)O)cc1)C1CCCCC1 (stereo not shown) [Example 91]"
  Measure Unit: "%"
  inhibition at 10 µM: 71
- Compound: "COc1cccc2cc(C(Nc3ccc(C(=O)NCCC(=O)O)cc3)C3CCCCC3)oc12 (stereo not shown) [Example A20]"
  Measure Unit: "%"
  inhibition at 10 µM: 72

Now take the following compound into account.
Read the entry Cc1c(C(Nc2ccc(C(=O)NCCC(=O)O)cc2)C2CCCCC2)oc2ccc(Br)nc12 (stereo not shown) [Example A125] and write its reported inhibition at 10 µM.
69

Sourced from patent US8436043B2
